molecular target: purified MKK4 protein (Homo sapiens, UniProt P45985); construct: made in house; assay: in vitro MKK4 kinase assay, phosphorylation of substrate JNK1a1 with 32P-ATP; format: biochemical; details: small inhibitory compound final concentration 50 μM, 32P-gATP approx. 10 μM, value is remaining activity, read-out: Inhibition, relative activity of MKK4 compared to control (without additional compound) (%)
Sequence (P45985 whole entry): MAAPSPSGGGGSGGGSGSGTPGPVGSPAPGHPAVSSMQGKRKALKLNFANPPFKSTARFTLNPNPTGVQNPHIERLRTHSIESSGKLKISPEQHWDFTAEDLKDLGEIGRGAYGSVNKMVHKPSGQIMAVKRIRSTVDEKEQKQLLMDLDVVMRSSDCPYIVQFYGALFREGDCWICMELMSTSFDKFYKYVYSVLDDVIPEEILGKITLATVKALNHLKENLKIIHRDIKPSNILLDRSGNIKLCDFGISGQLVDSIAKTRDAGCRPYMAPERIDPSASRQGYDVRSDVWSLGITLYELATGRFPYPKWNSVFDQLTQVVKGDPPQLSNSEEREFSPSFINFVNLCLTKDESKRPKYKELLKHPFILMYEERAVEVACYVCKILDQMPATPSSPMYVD
Overview of recorded remaining activity at 50 µM for various compounds

compound | remaining activity at 50 µM
Cc1n[nH]c(C)c1CCc1cc(=O)n2nc(C)c(-c3ccc(Cl)cc3)c2[nH]1 [SYN22177890] | 56.3%
Cn1c(O)c(C(=O)Nc2ccncc2)c(=O)c2ccccc21 | 72.6%
Cc1n[nH]c(C)c1CCc1cc(O)n2ncc(C(=O)Nc3ccccc3)c2n1 [SYN22174524] | 47.8%
COc1cccc(-c2nn3c(=O)cc(CCc4c(C)n[nH]c4C)[nH]c3c2C)c1 [SYN22176842] | 54.9%
COc1ccccc1-c1nn2c(=O)cc(CCc3c(C)n[nH]c3C)[nH]c2c1C [SYN22176990] | 58.2%
COc1cc([N+](=O)[O-])cc(/C=N/c2ccc3[nH]ncc3c2)c1O | 71.1%
O=C(O)c1ccc2c3c(ncnc13)-c1ccccc1C2=O | 66.2%
Cc1ccc(-c2cnn3c(=O)cc(CCc4c(C)n[nH]c4C)[nH]c23)cc1 [SYN22175977] | 55.5%
COc1nc(Oc2cccc(/C=C(\C#N)c3nn(CCO)c(N)c3C#N)c2)nc(N2CCCCC2)n1 | 58.4%
